assay: differential killing of epithelial or mesenchymal cells, primary screen, imaging, PC-3E GFP, TEM4-18 mCherry, co-culture (AID 1345086); conditions: imaging cell counts, measured here: epithelial PC-3E GFP cell survival, at 1 µM;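 further: cells exposed to compound for 72 h before imaging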
Property measured: normalised cell number

Molecule	Numeric readout
CN1CCc2cc3c(cc2[C@H]1C1OC(=O)c2c1ccc1c2OCO1)OCO3 (stereo partly specified)	0.99
C[C@@H]([C@H](O)c1ccccc1)N(C)C	1.19
CCSCCC(N)C(=O)O (stereo unspecified)	1.26
CCCC(C)(COC(N)=O)COC(=O)NC(C)C (stereo unspecified)	1.17
C[C@H]1C[C@@H](O)[C@]2(O)[C@@]13CC(=O)OC[C@@]2(C)[C@](C)(O)C(=O)C3	0.96
Cc1[nH]c2ccccc2c1CN(C)C	0.99
CC[C@@]1(O)C[C@H](O[C@H]2C[C@H](N(C)C)[C@H](O)[C@H](C)O2)c2c(cc3c(c2O)C(=O)c2c(O)ccc(O)c2C3=O)[C@H]1C(=O)OC	1.07
C=CCN=C=S	1.07
COc1cc2c(c(OC)c1OC)-c1ccc(O)c(=O)cc1C(N)CC2 (stereo unspecified)	1.21
COc1cc2c(cc1O)CCNC2C (stereo unspecified)	1
CNc1ccccc1C(=O)O	1.13

###

system: F380Y/beta4; assay: modulators of BK channel variants, profiling panel, selectivity assay, cell-based, U2OS BacMam, thallium flux, beta subunits (AID 1259406); conditions: at 30 µM;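 further: initial slope of Thallos dye fluorescence rise after thallium is added; log ratio against the mean of 0.3% DMSO vehicle wells on the same plate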
Active and inactive are the calls of the source.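 Rule for the calls: active = thallium flux through the channel raised or lowered by more than 3 SD from vehicle-only wells, actives on both sides; inactive = the rest.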
Labels: label 1 = active, label 0 = inactive

Molecule	Category
COC(=O)N1CCN(C(=O)Cc2ccc(Cl)c(Cl)c2)C(CN2CCCC2)C1 (stereo not drawn)	label 0
C[N+]1(C)CCN(c2ccccc2)CC1	label 0
C=C1C[C@@H]2[C@H](CC[C@]3(C)C(=O)CC[C@@H]23)[C@@]2(C)C=CC(=O)C=C12	label 0
C[C@]12CC(=CO)C(=O)C[C@@H]1CC[C@@H]1[C@@H]2CC[C@@]2(C)[C@H]1CC[C@]2(C)O	label 1
c1ccc2c(c1)Nc1ccccc1S2	label 0
Clc1ccc(COC(Cn2ccnc2)c2ccc(Cl)cc2Cl)cc1 (stereo not drawn)	label 1
NC(=O)CS(=O)C(c1ccccc1)c1ccccc1 (stereo not drawn)	label 0
CC(C)c1cccc(C(C)C)c1O	label 0
CC[C@@H]1C=CC=CC[C@H](C)[C@@H](O)[C@@H](C)C(=O)[C@H](C)[C@@H](O)[C@H](C)C(=O)[C@H](C)[C@@H](O)[C@H](C)C=CC(=O)O[C@H]2[C@@H](C)[C@@H](CC1)O[C@@]1(CC[C@@H](C)[C@@H](C[C@H](C)O)O1)[C@@H]2C	label 1
NC1=NC(=O)C(c2ccccc2)O1 (stereo not drawn)	label 0
CS(=O)(=O)Nc1ccc(Cc2noc(-c3ccc4[nH]cc(CCN)c4c3)n2)cc1	label 0
CC[C@@H](C(N)=O)N1CCCC1=O	label 0
NCCc1ccccn1	label 0
O=C1CC[C@@]2(O)[C@H]3Cc4ccc(O)c5c4[C@@]2(CCN3CC2CC2)[C@H]1O5	label 0
Clc1ccc(CON=C(Cn2ccnc2)c2ccc(Cl)cc2Cl)c(Cl)c1	label 0
Clc1ccc(COC(Cn2ccnc2)c2ccc(Cl)cc2Cl)c(Cl)c1 (stereo not drawn)	label 1
CN1CC[C@@H](c2ccc(F)cc2)[C@H](COc2ccc3c(c2)OCO3)C1	label 1
CN=C1CN(O)C(c2ccccc2)=c2cc(Cl)ccc2=N1	label 0
COc1cccc([C@@]2(O)CCCC[C@@H]2CN(C)C)c1	label 0
c1ccc2c3c([nH]c2c1)CNCC3	label 0
C=CCN1CC[C@]23c4c5ccc(O)c4O[C@H]2C(=O)CC[C@@]3(O)[C@H]1C5	label 0
Oc1cc(Cl)ccc1Oc1ccc(Cl)cc1Cl	label 1
CCOC(=O)c1cncn1C(C)c1ccccc1 (stereo not drawn)	label 0
CCC1(c2ccc(N)cc2)CCC(=O)NC1=O (stereo not drawn)	label 0
C[C@]12CC[C@H]3[C@@H](CCC4=CC(=O)CC[C@@H]43)[C@@H]1CC[C@@H]2O	label 0
O=P1(N(CCCl)CCCl)NCCCO1 (stereo not drawn)	label 0
O=C(O)C(Cl)Cl	label 0
CCOC(=O)c1cncn1[C@H](C)c1ccccc1	label 0
CN(C)[C@@H]1C(=O)C(C(N)=O)=C(O)[C@@]2(O)C(=O)C3=C(O)c4c(O)cccc4[C@@](C)(O)[C@H]3[C@H](O)[C@@H]12	label 0
CCC(COC(=O)c1cc(OC)c(OC)c(OC)c1)(c1ccccc1)N(C)C (stereo not drawn)	label 1
CN1C(=O)CN=C(c2ccccc2)c2cc([N+](=O)[O-])ccc21	label 0
COc1ccc(C(CN(C)C)C2(O)CCCCC2)cc1 (stereo not drawn)	label 0
CN1C(=O)CN=C(c2ccccc2)c2cc(Cl)ccc21	label 0
